Where these numbers come from: paper PMC4503722

system: Colo320; test: cells; format: cell-based; conditions: assay number 27; basal; read-out: Basal_Viability ATP Colo 320 summarized IC50
experimental.readout: IC50 (nM)

INSERT INTO assay_data (compound, target, experimental_readout, operator_symbol, value_observed) VALUES
  ('O=C1C2CC=CCC2C(=O)N1SC(Cl)(Cl)Cl (centres unmarked)', 'Colo320', 'IC50', '=', 306),
  ('CC[n+]1c(-c2ccccc2)c2cc(N)ccc2c2ccc(N)cc21', 'Colo320', 'IC50', '>', 20000),
  ('CNC(=O)Oc1cccc2ccccc12', 'Colo320', 'IC50', '>', 20000),
  ('O=C(Nc1ccc(Cl)cc1)Nc1ccc(Cl)c(C(F)(F)F)c1', 'Colo320', 'IC50', '=', 3),
  ('CCCCCCCCCCCCCCCC(=O)OC/C=C(C)/C=C/C=C(C)/C=C/C1=C(C)CCCC1(C)C', 'Colo320', 'IC50', '>', 20000);

====

tested on: SNU-C1; test: cells; type: cell-based; conditions: assay number 30; basal
experimental.readout: Basal_Viability ATP SNU-C1 IC50/EC50 (µM)

INSERT INTO measurements (compound, experimental_readout, operator_symbol, value_observed) VALUES
  ('CCc1cccc(N(C)C(N)=Nc2cccc3ccccc23)c1.Cl [NCGC00015236-04]', 'Basal_Viability ATP SNU-C1 IC50/EC50', '>', 20),
  ('Cc1ccc(C(=O)c2cc(O)c(O)c([N+](=O)[O-])c2)cc1 [NCGC00181767-03]', 'Basal_Viability ATP SNU-C1 IC50/EC50', '=', 4.536),
  ('CCCn1cnc2c1c(=O)n(CCCCC(C)=O)c(=O)n2C [NCGC00015861-09]', 'Basal_Viability ATP SNU-C1 IC50/EC50', '>', 20),
  ('COCC(C)N(C(=O)CCl)c1c(C)csc1C (stereo not shown) [NCGC00163935-05]', 'Basal_Viability ATP SNU-C1 IC50/EC50', '>', 20),
  ('CC[C@H]1CN2CCc3cc(OC)c(OC)cc3[C@@H]2C[C@@H]1C[C@H]1NCCc2cc(OC)c(OC)cc21 [NCGC00024379-16]', 'Basal_Viability ATP SNU-C1 IC50/EC50', '=', 0.00228),
  ('Cc1ccc([N+](=O)[O-])[c]2c1[O][Hg]2 [NCGC00249897-01]', 'Basal_Viability ATP SNU-C1 IC50/EC50', '=', 0.2022),
  ('Cc1nc(N)nc(N)c1-c1ccc(Cl)c(Cl)c1 [NCGC00253626-01]', 'Basal_Viability ATP SNU-C1 IC50/EC50', '=', 2.165);

====

system: INS-1E cells; experiment: cells; format: cell-based, rat; settings: Rattus norvegicus, INS-1E; read-out: Ins. sec. EC50
// reported EC50 for each item listed
experimental.readout: EC50

INSERT INTO assay_data (compound, value_observed) VALUES
  ('CC(C)n1c(/C=C/C(O)CC(O)CC(=O)O)c(-c2ccc(F)cc2)c2ccccc21 (stereo not drawn) [fluvastatin, reference compound]', '> 10 µM'),
  ('CCC(C)(C)C(=O)O[C@H]1C[C@@H](C)C=C2C=C[C@H](C)[C@H](CC[C@@H]3C[C@@H](O)CC(=O)O3)[C@H]21 [simvastatin, reference compound]', '> 10 µM'),
  ('CC(C)C[C@H](NC(=O)[C@H](CCc1ccccc1)NC(=O)CN1CCOCC1)C(=O)N[C@@H](Cc1ccccc1)C(=O)N[C@@H](CC(C)C)C(=O)[C@@]1(C)CO1 [carfilzomib, reference compound]', '> 10 µM'),
  ('Cc1ccc2nc(N)[nH]c(=O)c2c1Sc1ccncc1 [nolatrexed, reference compound]', '> 10 µM'),
  ('Cc1nc(Nc2ncc(C(=O)Nc3c(C)cccc3Cl)s2)cc(N2CCN(CCO)CC2)n1 [dasatinib, reference compound]', '> 10 µM'),
  ('CN(Cc1cnc2nc(N)nc(N)c2n1)c1ccc(C(=O)N[C@@H](CCC(=O)O)C(=O)O)cc1 [methotrexate, reference compound]', '> 10 µM'),
  ('CCC1=C(C)CN(C(=O)NCCc2ccc(S(=O)(=O)NC(=O)N[C@H]3CC[C@H](C)CC3)cc2)C1=O [glimepiride, reference compound]', '0.004 µM'),
  ('COc1ccc2c(c1)C(=O)N(CCc1ccc(S(=O)(=O)NC(=O)NC3CCCCC3)cc1)C(=O)C2(C)C [gliquidone, reference compound]', '0.23 µM'),
  ('Cc1ccc(S(=O)(=O)NC(=O)NN2CC3CCCC3C2)cc1 (stereo not drawn) [gliclazide, reference compound]', '1.8 µM');
